tested on: MCF7 cells; experiment: MTT antiproliferative activity assay, MCF7; format: cell-based; details: IC50 against MRC5 divided by IC50 against MCF7
Selectivity Index MCF7 listing for selected compounds.
Lab note: record just the number, no unit beside it.

Sample records with Selectivity Index MCF7:
CN(C)c1ccc(C=Nc2c(C#N)c3n(c2C(=O)Nc2ccc(F)cc2)CCC3)cc1 [Compound 16b] : 15.88
COc1ccc(NC(=O)c2c(N=Cc3ccc(F)cc3)c(C#N)c3n2CCC3)cc1 [Compound 16e] : 18.47

Now for the compound whose Selectivity Index MCF7 we want.
In one line, give reported Selectivity Index MCF7 of the entry CS(=O)(=O)CCNCc1ccc(-c2ccc3ncnc(Nc4ccc(OCc5cccc(F)c5)c(Cl)c4)c3c2)o1 [Lapatinib, lapatinib, reference compound] .
2.49

---

Recorded melting point for the following compounds

CN(C)c1ccc(C=Nc2c(C#N)c3n(c2C(=O)Nc2ccc(F)cc2)CCC3)cc1 [Compound 16b] : 244 to 246 °C
COc1ccc(NC(=O)c2c(N=Cc3ccc(C)cc3)c(C#N)c3n2CCC3)cc1 [Compound 16c] : 231 to 233 °C
Cc1ccc(C=Nc2c(C#N)c3n(c2C(=O)Nc2ccc(F)cc2)CCC3)cc1 [Compound 16d] : 241 to 243 °C
N#Cc1c(N=Cc2ccc(Cl)cc2)c(C(=O)Nc2ccc(F)cc2)n2c1CCC2 [Compound 16h] : 262 to 264 °C
COc1ccc(NC(=O)c2c(N=Cc3ccc(F)cc3)c(C#N)c3n2CCC3)cc1 [Compound 16e] : 239 to 241 °C

For the compound N#Cc1c(N=Cc2ccc(F)cc2)c(C(=O)Nc2ccc(F)cc2)n2c1CCC2 [Compound 16f] , give its measured melting point value.
253 to 255 °C

Give the reported value of melting point for this record: COc1ccc(NC(=O)c2c(N=Cc3ccc(N(C)C)cc3)c(C#N)c3n2CCC3)cc1 [Compound 16a]
226 to 228 °C

Give the value of melting point reported for the following: COc1ccc(NC(=O)c2c(N=Cc3ccc(Cl)cc3)c(C#N)c3n2CCC3)cc1 [Compound 16g]
241 to 243 °C

---

Let's look at some molecules and their measured pIC50.
tested on: MCF7 cells; assay: MTT antiproliferative activity assay, MCF7; format: cell-based; details: Homo sapiens, MCF7; MTT, 72 h, mean ± S.D. (n = 3)
pIC50 field: float, defined as -log10 of concentration (mol/L).

The examples below pair each entry with its known result.
COc1ccc(NC(=O)c2c(N=Cc3ccc(N(C)C)cc3)c(C#N)c3n2CCC3)cc1 [Compound 16a] : 4.39
Cc1ccc(C=Nc2c(C#N)c3n(c2C(=O)Nc2ccc(F)cc2)CCC3)cc1 [Compound 16d] : 5.15
N#Cc1c(N=Cc2ccc(Cl)cc2)c(C(=O)Nc2ccc(F)cc2)n2c1CCC2 [Compound 16h] : 4.57

Supply pIC50 value. Item: CS(=O)(=O)CCNCc1ccc(-c2ccc3ncnc(Nc4ccc(OCc5cccc(F)c5)c(Cl)c4)c3c2)o1 [Lapatinib, lapatinib, reference compound]
5.22

For the molecule COc1ccc(NC(=O)c2c(N=Cc3ccc(C)cc3)c(C#N)c3n2CCC3)cc1 [Compound 16c] , give its measured pIC50 value.
7.52

---

test system: HT29 cells; assay: MTT antiproliferative activity assay, HT29; format: cell-based; conditions: IC50 against MRC5 divided by IC50 against HT29
METRIC: Selectivity Index HT29

Examples from the recorded data:
CN(C)c1ccc(C=Nc2c(C#N)c3n(c2C(=O)Nc2ccc(F)cc2)CCC3)cc1 [Compound 16b] : 0.12
COc1ccc(NC(=O)c2c(N=Cc3ccc(Cl)cc3)c(C#N)c3n2CCC3)cc1 [Compound 16g] : 15.62
N#Cc1c(N=Cc2ccc(Cl)cc2)c(C(=O)Nc2ccc(F)cc2)n2c1CCC2 [Compound 16h] : 2.25
CS(=O)(=O)CCNCc1ccc(-c2ccc3ncnc(Nc4ccc(OCc5cccc(F)c5)c(Cl)c4)c3c2)o1 [Lapatinib, lapatinib, reference compound] : 1.13
COc1ccc(NC(=O)c2c(N=Cc3ccc(N(C)C)cc3)c(C#N)c3n2CCC3)cc1 [Compound 16a] : 6.68

Input N#Cc1c(N=Cc2ccc(F)cc2)c(C(=O)Nc2ccc(F)cc2)n2c1CCC2 [Compound 16f] , output reported Selectivity Index HT29.
6.38

Please give the documented Selectivity Index HT29 of COc1ccc(NC(=O)c2c(N=Cc3ccc(F)cc3)c(C#N)c3n2CCC3)cc1 [Compound 16e]
8.15

Write down Selectivity Index HT29 measured for item Cc1ccc(C=Nc2c(C#N)c3n(c2C(=O)Nc2ccc(F)cc2)CCC3)cc1 [Compound 16d]
14.24

Give recorded Selectivity Index HT29. COc1ccc(NC(=O)c2c(N=Cc3ccc(C)cc3)c(C#N)c3n2CCC3)cc1 [Compound 16c]
10.60

Origin of measurements: paper PMC8271847
